System Tested: CYP3A4 (Homo sapiens, UniProt P08684)
Sequence (P08684 whole entry): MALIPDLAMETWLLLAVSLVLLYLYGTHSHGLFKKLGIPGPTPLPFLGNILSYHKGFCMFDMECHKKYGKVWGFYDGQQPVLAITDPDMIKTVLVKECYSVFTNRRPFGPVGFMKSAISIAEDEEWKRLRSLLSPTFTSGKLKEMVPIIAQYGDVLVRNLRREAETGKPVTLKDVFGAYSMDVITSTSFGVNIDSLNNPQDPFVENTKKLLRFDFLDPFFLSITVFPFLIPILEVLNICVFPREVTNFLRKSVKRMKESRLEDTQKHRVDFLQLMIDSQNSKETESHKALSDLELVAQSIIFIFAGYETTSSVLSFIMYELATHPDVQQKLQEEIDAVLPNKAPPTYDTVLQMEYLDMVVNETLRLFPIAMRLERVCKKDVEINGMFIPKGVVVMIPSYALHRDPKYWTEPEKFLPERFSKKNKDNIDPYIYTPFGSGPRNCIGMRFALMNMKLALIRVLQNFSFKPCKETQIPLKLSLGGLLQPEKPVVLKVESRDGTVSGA
Assay: Inhibition of CYP3A4 (unknown origin) assessed as remaining enzyme activity at 10 uM
Type: ADME
Condition Summary: read-out: Activity
Field: activity at 10 µM. Provide a value for each of the compounds that follow.
Answers are plain numbers, in %.

INSERT INTO assay_data (smiles_structure, parameter_measured, scale_unit, experimental_value) VALUES
  ('Cc1c(-c2ccc(F)cc2F)noc1-c1ccc2c(c1)CN(C(C)C)C2=O', 'activity at 10 µM', '%', 98),
  ('CC(C)N1Cc2cc(-c3cc(-c4ccc(Cl)nc4)no3)ccc2C1=O', 'activity at 10 µM', '%', 94.5),
  ('CC(C)N1C(=O)c2ccc(-c3cc(-c4ccccc4F)no3)cc21', 'activity at 10 µM', '%', 120);

# batch size: 2; output activity at 10 µM per entry
1. COc1ccc(-c2cc(-c3ccc4c(c3)CN(C(C)C)C4=O)on2)cn1
2. CC(C)N1Cc2cc(-c3cc(-c4ccccc4F)no3)ccc2C1=O

Found:
[95.6, 107]

---

System Tested: Metabotropic glutamate receptor 5 (Homo sapiens)
Assay: Antagonist activity against human mGluR5 expressed in HEK cells assessed as inhibition of L-glutamate-induced intracellular calcium levels at 1 uM after 18 hrs
Assay type: functional, cell-based
Condition Summary: HEK293
Can you tell me inhibition for the items I'm about to list?
Phrase the answer as number then unit, nothing more needed.

INSERT INTO assay_data (smiles_structure, experimental_value) VALUES
  ('COc1ccc(-c2noc(-c3ccc4c(c3)CN(C(C)C)C4=O)c2C)cn1', '33.5%'),
  ('CC(C)N1C(=O)c2ccc(-c3cc(-c4ccccc4F)no3)cc21', '14.9%'),
  ('Cc1ccc(-c2cc(-c3ccc4c(c3)CN(C(C)C)C4=O)on2)cn1', '14%'),
  ('CC(C)N1Cc2cc(-c3cc(-c4ccccc4F)no3)ccc2C1=O', '21.9%'),
  ('CC(C)N1C(=O)c2ccc(-c3cc(-c4ccc(Cl)nc4)no3)cc21', '16.1%');

Answer for every listed entry: what is its inhibition? The entries follow.
1. CC(C)N1C(=O)c2ccc(-c3cc(-c4ccc(Cl)cc4)no3)cc21
2. Cc1c(-c2ccc(Cl)cc2)noc1-c1ccc2c(c1)CN(C(C)C)C2=O
3. CC(C)N1Cc2cc(-c3cc(-c4ccc(Cl)nc4)no3)ccc2C1=O
4. Cc1c(-c2ccc(F)cc2F)noc1-c1ccc2c(c1)CN(C(C)C)C2=O
5. Cc1c(-c2ccc(Cl)cc2)noc1-c1ccc2c(c1)N(C(C)C)C2=O
6. CC(C)N1C(=O)c2ccc(-c3cc(-c4ccc(F)cc4)no3)cc21

Found:
1. 12.2%
2. 11.7%
3. 22.7%
4. 7.95%
5. 9.46%
6. 1.82%

---

System Tested: Voltage-gated inwardly rectifying potassium channel KCNH2 (Homo sapiens, UniProt Q12809)
Sequence (Q12809 whole entry): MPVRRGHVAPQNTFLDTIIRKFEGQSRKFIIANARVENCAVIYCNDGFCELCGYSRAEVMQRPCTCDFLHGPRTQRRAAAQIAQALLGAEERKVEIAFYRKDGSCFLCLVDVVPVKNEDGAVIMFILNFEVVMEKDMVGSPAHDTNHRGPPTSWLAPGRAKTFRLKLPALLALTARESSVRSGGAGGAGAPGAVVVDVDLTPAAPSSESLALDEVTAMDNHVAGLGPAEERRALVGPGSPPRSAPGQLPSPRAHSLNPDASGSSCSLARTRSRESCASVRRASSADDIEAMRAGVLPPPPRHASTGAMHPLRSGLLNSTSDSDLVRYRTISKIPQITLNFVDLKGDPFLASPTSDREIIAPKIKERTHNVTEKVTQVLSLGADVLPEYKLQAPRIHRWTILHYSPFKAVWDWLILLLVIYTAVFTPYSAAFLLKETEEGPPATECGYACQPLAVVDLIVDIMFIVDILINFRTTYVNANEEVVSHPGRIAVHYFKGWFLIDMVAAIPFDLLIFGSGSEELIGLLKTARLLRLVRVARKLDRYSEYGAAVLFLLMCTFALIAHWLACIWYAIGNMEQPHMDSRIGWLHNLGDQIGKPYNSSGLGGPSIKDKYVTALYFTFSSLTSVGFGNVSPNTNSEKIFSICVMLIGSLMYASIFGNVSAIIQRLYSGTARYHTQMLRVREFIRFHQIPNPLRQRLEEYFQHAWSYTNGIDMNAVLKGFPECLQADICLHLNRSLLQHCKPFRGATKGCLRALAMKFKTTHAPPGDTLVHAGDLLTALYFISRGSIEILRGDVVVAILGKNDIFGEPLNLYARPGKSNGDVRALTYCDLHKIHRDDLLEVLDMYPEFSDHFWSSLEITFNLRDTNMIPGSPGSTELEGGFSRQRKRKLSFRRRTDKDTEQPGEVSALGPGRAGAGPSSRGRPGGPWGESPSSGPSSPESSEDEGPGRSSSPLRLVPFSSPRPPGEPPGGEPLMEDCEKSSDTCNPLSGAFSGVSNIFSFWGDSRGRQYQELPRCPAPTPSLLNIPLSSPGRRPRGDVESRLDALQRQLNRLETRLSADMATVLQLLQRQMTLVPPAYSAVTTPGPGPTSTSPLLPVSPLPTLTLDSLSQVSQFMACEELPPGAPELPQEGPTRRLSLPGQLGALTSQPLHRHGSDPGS
Parameter Measured: pIC50
Numbers only, as −log10 of the molar value.

INSERT INTO measurements (smiles_structure, system_tested, experimental_value) VALUES
  ('CC(C)N1Cc2cc(-c3cc(-c4ccc(Cl)nc4)no3)ccc2C1=O', 'Voltage-gated inwardly rectifying potassium channel KCNH2 (Homo sapiens, UniProt Q12809)', 4.40);

Proceeding to the next compound to report its pIC50.
Lookup: Look at this compound and give its reported pIC50. `COc1ccc(-c2cc(-c3ccc4c(c3)CN(C(C)C)C4=O)on2)cn1`
Found: 4.92

---

System Tested: Metabotropic glutamate receptor 5 (Homo sapiens) (UniProt P41594)
Sequence (P41594 21-1212 limits assumed): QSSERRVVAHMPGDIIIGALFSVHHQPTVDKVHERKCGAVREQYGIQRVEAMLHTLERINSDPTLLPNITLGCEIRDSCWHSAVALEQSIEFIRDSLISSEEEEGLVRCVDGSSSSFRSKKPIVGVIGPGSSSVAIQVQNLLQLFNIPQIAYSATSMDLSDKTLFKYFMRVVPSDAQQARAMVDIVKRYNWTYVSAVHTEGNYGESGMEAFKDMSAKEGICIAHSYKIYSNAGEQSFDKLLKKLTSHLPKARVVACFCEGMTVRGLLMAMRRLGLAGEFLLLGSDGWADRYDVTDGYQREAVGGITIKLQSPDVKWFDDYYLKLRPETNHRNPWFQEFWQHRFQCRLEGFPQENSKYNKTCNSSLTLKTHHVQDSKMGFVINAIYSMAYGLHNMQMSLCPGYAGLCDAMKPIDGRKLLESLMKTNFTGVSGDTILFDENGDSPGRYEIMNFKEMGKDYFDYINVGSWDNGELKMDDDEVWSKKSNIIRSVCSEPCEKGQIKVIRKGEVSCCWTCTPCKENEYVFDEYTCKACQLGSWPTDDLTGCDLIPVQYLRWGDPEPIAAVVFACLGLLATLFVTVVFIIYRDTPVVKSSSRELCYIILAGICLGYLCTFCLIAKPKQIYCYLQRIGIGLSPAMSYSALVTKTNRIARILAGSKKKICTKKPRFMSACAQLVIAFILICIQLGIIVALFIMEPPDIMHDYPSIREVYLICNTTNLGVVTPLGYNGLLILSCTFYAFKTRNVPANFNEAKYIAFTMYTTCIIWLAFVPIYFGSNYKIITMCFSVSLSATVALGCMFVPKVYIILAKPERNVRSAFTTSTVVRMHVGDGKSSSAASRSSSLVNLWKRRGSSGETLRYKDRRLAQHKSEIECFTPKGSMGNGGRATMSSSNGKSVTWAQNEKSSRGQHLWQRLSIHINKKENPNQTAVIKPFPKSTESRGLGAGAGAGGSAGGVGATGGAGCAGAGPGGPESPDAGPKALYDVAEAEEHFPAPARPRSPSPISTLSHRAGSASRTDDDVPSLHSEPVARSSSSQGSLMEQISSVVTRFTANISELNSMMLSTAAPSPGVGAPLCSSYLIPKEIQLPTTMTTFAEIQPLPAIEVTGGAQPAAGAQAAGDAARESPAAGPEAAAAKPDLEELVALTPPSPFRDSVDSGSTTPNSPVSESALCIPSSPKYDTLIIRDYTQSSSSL
Assay: Antagonist activity against human mGluR5 expressed in HEK cells assessed as inhibition of L-glutamate-induced intracellular calcium levels at 10 uM after 18 hrs
Assay type: functional, cell-based
Condition Summary: HEK293
Binned inhibition; ranges: bottom range: < 20%; center range: ≥ 20% and < 30%; top range: ≥ 30%

Lookup: Using the reported inhibition, which band applies to `COc1ccc(-c2cc(-c3ccc4c(c3)N(C(C)C)C4=O)on2)cc1` ?
Found: bottom range

Lookup: Try this compound next: `Cc1c(-c2ccc(F)cc2)noc1-c1ccc2c(c1)CN(C(C)C)C2=O`
Found: bottom range

Lookup: Try `CC(C)N1Cc2cc(-c3cc(-c4ccccc4F)no3)ccc2C1=O` next.
Found: center range

Lookup: Please answer likewise for `CC(C)N1Cc2cc(-c3cc(-c4ccc(Cl)nc4)no3)ccc2C1=O`
Found: top range

Lookup: Also `CC(C)N1Cc2cc(-c3cc(-c4ccc(F)cc4F)no3)ccc2C1=O` ?
Found: bottom range

Lookup: Can you handle `Cc1c(-c2ccc(Cl)nc2)noc1-c1ccc2c(c1)CN(C(C)C)C2=O` next?
Found: center range

Lookup: Param item: `Cc1c(-c2ccc(Cl)cc2)noc1-c1ccc2c(c1)CN(C(C)C)C2=O`
Found: center range

Lookup: Thanks! And `CC(C)N1C(=O)c2ccc(-c3cc(-c4ccccc4F)no3)cc21` ?
Found: bottom range

Lookup: `CC(C)N1C(=O)c2ccc(-c3cc(-c4ccc(F)cc4)no3)cc21` ?
Found: top range

Lookup: `Cc1c(-c2ccc(F)cc2F)noc1-c1ccc2c(c1)CN(C(C)C)C2=O` , same question.
Found: center range

Lookup: Same read-out for `CC(C)N1C(=O)c2ccc(-c3cc(-c4ccc(Cl)cc4)no3)cc21` ?
Found: bottom range

---

System Tested: CYP2D6 (Homo sapiens)
Sequence (P10635 whole entry): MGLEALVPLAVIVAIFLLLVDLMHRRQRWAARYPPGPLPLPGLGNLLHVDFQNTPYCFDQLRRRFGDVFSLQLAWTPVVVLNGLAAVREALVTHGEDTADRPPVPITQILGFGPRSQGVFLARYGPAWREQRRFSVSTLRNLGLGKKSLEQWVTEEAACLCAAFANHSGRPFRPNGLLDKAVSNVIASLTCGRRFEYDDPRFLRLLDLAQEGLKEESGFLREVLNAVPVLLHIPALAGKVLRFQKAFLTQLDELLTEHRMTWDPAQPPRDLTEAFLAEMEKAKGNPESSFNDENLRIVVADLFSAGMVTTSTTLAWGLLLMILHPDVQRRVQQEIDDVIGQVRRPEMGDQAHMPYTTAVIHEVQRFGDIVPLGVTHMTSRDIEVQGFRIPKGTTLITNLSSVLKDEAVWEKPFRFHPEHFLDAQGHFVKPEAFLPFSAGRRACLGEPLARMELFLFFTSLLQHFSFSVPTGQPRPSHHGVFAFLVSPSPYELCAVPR
Assay: Inhibition of CYP2D6 (unknown origin) assessed as remaining enzyme activity at 10 uM
Assay type: ADME
Condition Summary: read-out: Activity
Parameter Measured: activity at 10 µM
Please answer in the form of a number followed by its unit of measurement.

INSERT INTO measurements (smiles_structure, parameter_measured, experimental_value) VALUES
  ('CC(C)N1Cc2cc(-c3cc(-c4ccccc4F)no3)ccc2C1=O', 'activity at 10 µM', '45.8%'),
  ('CC(C)N1Cc2cc(-c3cc(-c4ccc(Cl)nc4)no3)ccc2C1=O', 'activity at 10 µM', '91.3%'),
  ('Cc1c(-c2ccc(F)cc2F)noc1-c1ccc2c(c1)CN(C(C)C)C2=O', 'activity at 10 µM', '104%'),
  ('CC(C)N1C(=O)c2ccc(-c3cc(-c4ccccc4F)no3)cc21', 'activity at 10 µM', '57.1%');

// below: activity at 10 µM requested for another compound
Lookup: Would you kindly share the measured activity at 10 µM for `COc1ccc(-c2cc(-c3ccc4c(c3)CN(C(C)C)C4=O)on2)cn1` ?
Found: 87.5%

---

System Tested: Metabotropic glutamate receptor 1 (Homo sapiens)
Assay: Antagonist activity against human mGluR1 expressed in HEK cells assessed as inhibition of L-glutamate-induced intracellular calcium levels at 10 uM after 18 hrs
Assay type: functional, cell-based
Condition Summary: HEK293
For each entry below, report its inhibition value.
Numbers only, in %.

Field: example entries. Status: answers known.
INSERT INTO measurements (smiles_structure, parameter_measured, scale_unit, experimental_value) VALUES
  ('CC(C)N1Cc2cc(-c3cc(-c4ccc(F)cc4F)no3)ccc2C1=O', 'inhibition', '%', 36.5),
  ('CC(C)N1C(=O)c2ccc(-c3cc(-c4ccc(F)cc4)no3)cc21', 'inhibition', '%', 50.4),
  ('COc1ccc(-c2noc(-c3ccc4c(c3)CN(C(C)C)C4=O)c2C)cn1', 'inhibition', '%', 46.5),
  ('Cc1c(-c2ccc(Cl)cc2)noc1-c1ccc2c(c1)CN(C(C)C)C2=O', 'inhibition', '%', 61.6),
  ('Cc1c(-c2ccc3c(c2)CN(C(C)C)C3=O)nnn1-c1ccc(F)cc1F', 'inhibition', '%', 93.1);

# batch size: 7; output inhibition per entry
1. Cc1ccc(-c2cc(-c3ccc4c(c3)CN(C(C)C)C4=O)on2)cc1
2. COc1ccc(-c2cc(-c3ccc4c(c3)CN(C(C)C)C4=O)on2)cc1
3. CC(C)N1C(=O)c2ccc(-c3cc(-c4ccc(F)cc4F)no3)cc21
4. Cc1c(-c2ccc(Cl)cc2)noc1-c1ccc2c(c1)N(C(C)C)C2=O
5. CC(C)N1C(=O)c2ccc(-c3cc(-c4ccc(Cl)nc4)no3)cc21
6. CC(C)N1Cc2cc(-c3cc(-c4ccc(Cl)nc4)no3)ccc2C1=O
7. COc1ccc(-c2cc(-c3ccc4c(c3)N(C(C)C)C4=O)on2)cc1

Found:
25.1
35.1
17.3
49.1
7.77
47.1
2.44

I'm hoping you can list inhibition for every compound here, please.
1. COc1ccc(-c2noc(-c3ccc4c(c3)N(C(C)C)C4=O)c2C)cc1
2. Cc1c(-c2ccc(F)cc2F)noc1-c1ccc2c(c1)CN(C(C)C)C2=O
3. CC(C)N1C(=O)c2ccc(-c3cc(-c4ccccc4F)no3)cc21
4. CC(C)N1Cc2cc(-c3cc(-c4cccnc4F)no3)ccc2C1=O
5. Cc1c(-c2ccc(F)cc2)noc1-c1ccc2c(c1)CN(C(C)C)C2=O

Found:
13.7
87.6
91.1
42.3
62.8

Hi! Can you tell me inhibition for each of these compounds?
1. Cc1c(-c2ccc(Cl)nc2)noc1-c1ccc2c(c1)CN(C(C)C)C2=O
2. Cc1ccc(-c2cc(-c3ccc4c(c3)CN(C(C)C)C4=O)on2)cn1
3. CC(C)N1C(=O)c2ccc(-c3cc(-c4ccc(Cl)cc4)no3)cc21

Found:
1: 56.9; 2: 62.6; 3: 33.9

# batch: return inhibition for each of the 2 compounds below
1. COc1ccc(-c2cc(-c3ccc4c(c3)CN(C(C)C)C4=O)on2)cn1
2. CC(C)N1Cc2cc(-c3cc(-c4ccccc4F)no3)ccc2C1=O

Found:
1: 59.6; 2: 88.6
